Overview of reported IC50 across a group of molecules:
Test system: MYB mRNA
Test: Gene panel canonical junction qPCR assay, decrease in CJ mRNA, Table 3
Format: cell-based
Conditions: decrease in canonical junction (CJ) mRNA, gene panel qPCR, Table 3
Procedure: Compounds described herein were used to modulate RNA transcript abundance in cells. The expression of a target mRNA was measured by detecting the formation of an exon-exon junction in the canonical transcript (CJ). A compound mediated exon-inclusion event was detected by observing an increase in formation of a new junction with an alternative exon (AJ). Real-time qPCR assays were used to detect these splicing switches and interrogate the potency of various compounds towards different target genes. […]
quantity.kind: IC50

molecule | measured
Cc1cn2cc(NC(=O)c3ccc(N4CCC(NC5CC5)CC4)c4cc(C)oc34)cc(F)c2n1 | 0.1 to 1 µM
Cc1cc2c(nc(NC(=O)c3ccc(N4CCC(NC5CC5)CC4)c4cn(C)nc34)n2C)c(C)n1 | > 10 µM
CN[C@H]1CCN(c2ccc(C(=O)Nc3cc(F)c4nc(C)cn4c3)c3nn(C)cc23)[C@H]1C (single isomer, unassigned) | 1 to 10 µM
Cc1cc2cc(NC(=O)c3c(F)cc(N4CCC(NC5CC5)CC4)c4cn(C)nc34)sc2c(C)n1 | > 10 µM
COc1cc2nc(C)cn2cc1NC(=O)c1c(F)cc(N2CCC(NC3CC3)CC2)c2cn(C)nc12 | 0.1 to 1 µM
CCNC1CCN(c2ccc(C(=O)Nc3cc(Oc4cccnc4)c4nc(C)cn4c3)c3nn(C)cc23)CC1 | 0.1 to 1 µM
CCNC1CCN(c2ccc(C(=O)Nc3cc(F)c4cnccc4c3)c3nn(C)cc23)CC1 | > 10 µM
CCNC1CCN(c2ccc(C(=O)Nc3nc4c(C)nc(C)cc4[nH]3)c3nn(C)cc23)CC1 | 1 to 10 µM
Cc1cn2cc(NC(=O)c3ccc(N4CC[C@@H](NCC56CC(CO5)C6)C4)c4cn(C)nc34)cc(F)c2n1 | 1 to 10 µM
Cc1cn2cc(NC(=O)c3ccc(C4CNCCO4)c4[nH]cnc34)cc(F)c2n1 (stereo not drawn) | 0.1 to 1 µM
CCNC1CCN(c2ccc(C(=O)Nc3cc(Oc4ccccn4)c4nc(C)cn4c3)c3nn(C)cc23)CC1 | 1 to 10 µM
Cc1nc(CNS(C)(=O)=O)cn2cc(NC(=O)c3c(F)cc(N4CCC(NC5CC5)CC4)c4cn(C)nc34)nc12 | > 10 µM
Cc1cn2cc(NC(=O)c3c(F)cc(N4CCC(NC5CC5)CC4)c4cn(C)nc34)nc2c(CN)n1 | 1 to 10 µM
Cc1cn2cc(NC(=O)c3c(F)cc(N4CCC(NC5CC5)CC4)c4cn(C)nc34)nc2c(CNS(C)(=O)=O)n1 [Compound 393, 2,2,2-trifluoroacetate] | 0.1 to 1 µM
COc1cc2nn(C)cc2cc1NC(=O)c1ccc(N2CCC(NCC3CC3)CC2)c2cn(C)nc12 | 0.1 to 1 µM
